Where do the numbers come from? From patent US8236818B2.

I'd be grateful if you could share measured IC50 for these entries.
experimental system: melanocortin-4 receptor (Homo sapiens, UniProt P32245)
Construct: expressed in transfected cells; host or cells: HEK293 cells (membrane preparations)
Sequence (P32245 whole entry): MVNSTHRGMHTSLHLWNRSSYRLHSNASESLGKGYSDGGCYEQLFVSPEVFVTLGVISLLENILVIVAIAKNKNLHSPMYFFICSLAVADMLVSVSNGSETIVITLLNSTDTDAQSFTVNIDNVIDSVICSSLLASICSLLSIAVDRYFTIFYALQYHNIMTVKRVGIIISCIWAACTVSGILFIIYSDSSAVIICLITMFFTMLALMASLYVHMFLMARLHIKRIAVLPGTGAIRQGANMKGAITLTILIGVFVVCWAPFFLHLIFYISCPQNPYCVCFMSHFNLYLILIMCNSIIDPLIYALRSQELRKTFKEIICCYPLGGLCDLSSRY
test summary: Membrane binding assay (fluorescence polarization, competition with fluorescence labeled NDP-alpha-MSH)
condition summary: read-out: hMC-4R binding assay IC50/μM

[ask] Complete the entry with IC50 for CC(C)CCN(CCC(C)C)C(=O)c1ccc2nc(-c3ncco3)c(CCCN3CCC[C@@H]3C)n2c1
[reply] < 0.1 µM

[ask] Complete the entry with IC50 for COc1cccc(-c2nc3ccc(C(=O)N(CCC(C)C)CCC(C)C)cn3c2CN2CCC(N)C2)c1 (stereo not shown)
[reply] > 1 µM

[ask] Complete the entry with IC50 for CC(C)CCN(CCC(C)C)C(=O)c1ccc2nc(-c3ccc(S(C)(=O)=O)cc3)c(CCCN3CCCC3)n2c1
[reply] < 0.1 µM

[ask] Complete the entry with IC50 for CC(C)CCN(CCC(C)C)C(=O)c1ccc2nc(-c3ccc(=O)n(CCO)c3)c(CCCN3CCCC3C)n2c1 (stereo not shown)
[reply] < 0.1 µM

====

experimental system: melanocortin-4 receptor (Homo sapiens, UniProt P32245)
Construct: expressed in transfected cells; host or cells: HEK293 cells (membrane preparations)
test summary: Membrane binding assay (fluorescence polarization, competition with fluorescence labeled NDP-alpha-MSH)
condition summary: read-out: hMC-4R binding assay IC50/μM
I'd be grateful if you could share measured IC50 for these entries.

[ask] Complete the entry with IC50 for CC1CCCN1CCCc1c(-c2ccc(OCCO)nc2)nc2ccc(C(=O)N(CCC3CC3)CCC3CC3)cn12 (stereo not shown) [Example 112]
[reply] < 0.1 µM

[ask] Complete the entry with IC50 for CC(=O)OCCn1cc(-c2nc3ccc(C(=O)N(CCC4CC4)CCC4CC4)cn3c2CCCN2CCCC2C)ccc1=O (stereo not shown) [Example 110]
[reply] 0.1 to 1 µM

[ask] Complete the entry with IC50 for CC(C)CCN(CCC(C)C)C(=O)c1ccc2nc(-c3ccc(Cl)cc3)c(CCCCN(C)C)n2c1 [Example 24]
[reply] > 1 µM

[ask] Complete the entry with IC50 for CC(C)CCN(CCC(C)C)C(=O)c1ccc2nc(-c3ccccn3)c(CCCN3CCCC3)n2c1 [Example 55]
[reply] 0.1 to 1 µM

[ask] Complete the entry with IC50 for CC(C)CCN(CCC(C)C)C(=O)c1ccc2nc(-c3ccc(Cl)c(Cl)c3)c(CN3CCC(N(C)C)CC3)n2c1 [Example 131]
[reply] < 0.1 µM

[ask] Complete the entry with IC50 for CNC(=O)c1ccc(-c2nc3ccc(C(=O)N(CCC(C)C)CCC(C)C)cn3c2CCCN2CCCC2)cc1 [Example 64]
[reply] < 0.1 µM

[ask] Complete the entry with IC50 for COc1ccc(OC)c(-c2nc3ccc(C(=O)N(CCC(C)C)CCC(C)C)cn3c2CN2CCC(N(C)C)CC2)c1 [Example 130]
[reply] > 1 µM

====

experimental system: melanocortin-4 receptor (Homo sapiens, UniProt P32245)
Construct: expressed in transfected cells; host or cells: HEK293 cells (membrane preparations)
test summary: Functional assay (cAMP fluorescence polarization, membrane based, agonistic activity)
Format: biochemical
condition summary: 2 h; read-out: % activation functional assay
I'd be grateful if you could share measured Emax for these entries.
Note: unit % is implicit; provide only the numeric part.

[ask] Complete the entry with Emax for COc1cccc(-c2nc3ccc(C(=O)N(CCC(C)C)CCC(C)C)cn3c2CC(C)CN2CCCC2)c1 (stereo not drawn) [Example 54]
[reply] 0

[ask] Complete the entry with Emax for CC(C)CCN(CCC(C)C)C(=O)c1ccc2nc(-c3ncco3)c(CCCN3CCCC3)n2c1 [Example 47]
[reply] 0

[ask] Complete the entry with Emax for COc1ccc(OC)c(-c2nc3ccc(C(=O)N(CCC(C)C)CCC(C)C)cn3c2CN2CCC(N(C)C)CC2)c1 [Example 130]
[reply] 0

[ask] Complete the entry with Emax for CC1CCCN1CCCc1c(-c2ccc(=O)n(CCO)c2)nc2ccc(C(=O)N(CCC3CC3)CCC3CC3)cn12 (stereo not drawn) [Example 111]
[reply] -25

[ask] Complete the entry with Emax for CC(C)CCN(CCC(C)C)C(=O)c1ccc2nc(-c3ncco3)c(CCCN3CCC3)n2c1 [Example 74]
[reply] 1

[ask] Complete the entry with Emax for CC(C)CCN(CCC(C)C)C(=O)c1ccc2nc(-c3ccc(C#N)cc3)c(CCCN3CCCC3)n2c1 [Example 17]
[reply] 0

[ask] Complete the entry with Emax for CC(C)CCN(CCC(C)C)C(=O)c1ccc2nc(-c3ccc(Cl)cc3)c(CCCCN(C)C)n2c1 [Example 24]
[reply] 0

[ask] Complete the entry with Emax for CC(C)CCN(CCC(C)C)C(=O)c1ccc2nc(-c3cc(O)ccn3)c(CCCN3CCCC3)n2c1 [Example 44]
[reply] 0

[ask] Complete the entry with Emax for CC(C)CCN(CCC(C)C)C(=O)c1ccc2nc(C3CCOCC3)c(CCCN3CCCC3)n2c1 [Example 98]
[reply] -8

[ask] Complete the entry with Emax for CC(C)CCN(CCC(C)C)C(=O)c1ccc2nc(-c3ncccn3)c(CCCN3CCCC3)n2c1 [Example 84]
[reply] -8

[ask] Complete the entry with Emax for COc1cccc(-c2nc3ccc(C(=O)N(CCC(C)C)CCC(C)C)cn3c2CN2CCC(N(C)C)CC2)c1 [Example 114]
[reply] 0

[ask] Complete the entry with Emax for COc1cccc(-c2nc3ccc(C(=O)N(CCC(C)C)CCC(C)C)cn3c2CCCN2CC[C@H](O)C2)c1 [Example 33]
[reply] -22

[ask] Complete the entry with Emax for COCC(C)NCCCc1c(-c2cccc(OC)c2)nc2ccc(C(=O)N(CCC(C)C)CCC(C)C)cn12 (stereo not drawn) [Example 13]
[reply] 0

[ask] Complete the entry with Emax for CC(C)CCN(CCC(C)C)C(=O)c1ccc2nc(-c3ncco3)c(CCCN(C)C)n2c1 [Example 52]
[reply] 0

[ask] Complete the entry with Emax for CC(C)CCN(CCC(C)C)C(=O)c1ccc2nc(-c3ccc(F)cc3)c(CN3CCC(N)CC3)n2c1 [Example 118]
[reply] 0

====

experimental system: melanocortin-4 receptor (Homo sapiens)
Construct: expressed in transfected cells; host or cells: HEK293 cells (membrane preparations)
test summary: Membrane binding assay (fluorescence polarization, competition with fluorescence labeled NDP-alpha-MSH)
condition summary: read-out: hMC-4R binding assay IC50/μM
assay metric: IC50

[ask] Complete the entry with IC50 for CC1CCCN1CCCc1c(-c2ccc(=O)n(CCO)c2)nc2ccc(C(=O)N(CCC3CC3)CCC3CC3)cn12 (stereo not shown) [Example 111]
[reply] 0.1 to 1 µM

[ask] Complete the entry with IC50 for COc1cccc(-c2nc3ccc(C(=O)N(CCC(C)C)CCC(C)C)cn3c2CCCN2CCCCC2)c1 [Example 31]
[reply] < 0.1 µM

[ask] Complete the entry with IC50 for COc1cccc(-c2nc3ccc(C(=O)N(CCC(C)C)CCC(C)C)cn3c2CCCNCC2CC2)c1 [Example 10]
[reply] > 1 µM

[ask] Complete the entry with IC50 for CC(C)CCN(CCC(C)C)C(=O)c1ccc2nc(C3CCOCC3)c(CCCN3CCCC3)n2c1 [Example 98]
[reply] 0.1 to 1 µM

[ask] Complete the entry with IC50 for CC(C)CCN(CCC(C)C)C(=O)c1ccc2nc(-c3nccs3)c(CCCN(C)C)n2c1 [Example 61]
[reply] 0.1 to 1 µM

[ask] Complete the entry with IC50 for COc1cccc(-c2nc3ccc(C(=O)N(CCC(C)C)CCC(C)C)cn3c2CCCN2CCN(C)CC2)c1 [Example 15]
[reply] 0.1 to 1 µM

[ask] Complete the entry with IC50 for CC(C)CCN(CCC(C)C)C(=O)c1ccc2nc(-c3ncco3)c(CCCN3CC[C@@H](F)C3)n2c1 [Example 72]
[reply] 0.1 to 1 µM

[ask] Complete the entry with IC50 for CC(C)CCN(CCC(C)C)C(=O)c1ccc2nc(-c3ccc(N)nc3)c(CCCN3CCCC3)n2c1 [Example 65]
[reply] < 0.1 µM

[ask] Complete the entry with IC50 for COc1cccc(-c2nc3ccc(C(=O)N(CCC(C)C)CCC(C)C)cn3c2CCCN2CC(O)C2)c1 [Example 37]
[reply] < 0.1 µM

[ask] Complete the entry with IC50 for CC(=O)OCCOc1ccc(-c2nc3ccc(C(=O)N(CCC4CC4)CCC4CC4)cn3c2CCCN2CCCC2)cn1 [Example 106]
[reply] 0.1 to 1 µM

[ask] Complete the entry with IC50 for CC(C)CCN(CCC(C)C)C(=O)c1ccc2nc(-c3ccc(OCC(C)O)nc3)c(CCCN3CCCC3)n2c1 (stereo not shown) [Example 94]
[reply] > 1 µM

[ask] Complete the entry with IC50 for CC(C)CCN(CCC(C)C)C(=O)c1ccc2nc(-c3ncco3)c(CCCN3CCC3)n2c1 [Example 74]
[reply] 0.1 to 1 µM

[ask] Complete the entry with IC50 for CC(C)CCN(CCC(C)C)C(=O)c1ccc2nc(-c3ncco3)c(CCCN3CC(O)C3)n2c1 [Example 73]
[reply] 0.1 to 1 µM

[ask] Complete the entry with IC50 for COc1cccc(-c2nc3ccc(C(=O)N(CCC(C)C)CCC(C)C)cn3c2CCCN2CCOC[C@@H]2C)c1 [Example 16]
[reply] < 0.1 µM

[ask] Complete the entry with IC50 for CC(C)CCN(CCC(C)C)C(=O)c1ccc2nc(-c3ccc(Cl)cc3)c(CCCN)n2c1 [Example 4]
[reply] 0.1 to 1 µM

[ask] Complete the entry with IC50 for COc1cccc(-c2nc3ccc(C(=O)N(CCC(C)C)CCC(C)C)cn3c2CN2CCNCC2)c1 [Example 121]
[reply] > 1 µM
